- System: SNB-75
- measurement_description: Cytostatic activity against human SNB75 cells
- Assay type: functional
property_label: GI50 (nM)
Give the number; nM is assumed, so skip it.

Provide one value: measured GI50 of `COc1cc(CSc2cc(Cl)c(-c3nnc(-c4ccccc4)s3)cc2S(=O)(=O)NC(=N)NO)cc(OC)c1OC` 1860

Provide one value: measured GI50 of `N=C(NO)NS(=O)(=O)c1cc(-c2nc(-c3ccccc3)no2)c(Cl)cc1SCc1ccccc1` 1220

Provide one value: measured GI50 of `N=C(NO)NS(=O)(=O)c1cc(-c2nnc(-c3ccc(Cl)cc3)s2)c(Cl)cc1SCc1ccc2c(c1)OCO2` 1780

Provide one value: measured GI50 of `N=C(NO)NS(=O)(=O)c1cc(-c2nc(-c3ccccc3)no2)c(Cl)cc1SCc1ccc2c(c1)OCO2` 1550

====

- System: SNB-75
- measurement_description: Cytostatic activity against human SNB75 cells
- Format: functional
Would you mind telling me the reported GI50 of each entry?
Give the number; µM is assumed, so skip it.

Please report GI50 with SNB-75 for item `COc1cc(CSc2cc(Cl)c(-c3nnc(-c4ccc(Cl)cc4)s3)cc2S(=O)(=O)NC(=N)NO)cc(OC)c1OC` . 25.7

Please report GI50 with SNB-75 for item `COc1cc(CSc2cc(Cl)c(-c3nc(-c4ccccc4)no3)cc2S(=O)(=O)NC(=N)NO)cc(OC)c1OC` . 3.98

Please report GI50 with SNB-75 for item `COc1cc(CSc2cc(Cl)c(-c3nc(-c4ccc(Cl)cc4)no3)cc2S(=O)(=O)NC(=N)NO)cc(OC)c1OC` . 2.95

Please report GI50 with SNB-75 for item `N=C(NO)NS(=O)(=O)c1cc(-c2nnc(-c3ccc(Cl)cc3)s2)c(Cl)cc1SCc1ccccc1` . 1.49

Please report GI50 with SNB-75 for item `N=C(NO)NS(=O)(=O)c1cc(-c2nc(-c3ccc(Cl)cc3)no2)c(Cl)cc1SCc1ccc2c(c1)OCO2` . 1.74

Please report GI50 with SNB-75 for item `N=C(NO)NS(=O)(=O)c1cc(-c2nnc(-c3ccccc3)s2)c(Cl)cc1SCc1ccc2c(c1)OCO2` . 1.07
